Target: V1 receptor (Rattus norvegicus)
Sequence (P30560 whole entry): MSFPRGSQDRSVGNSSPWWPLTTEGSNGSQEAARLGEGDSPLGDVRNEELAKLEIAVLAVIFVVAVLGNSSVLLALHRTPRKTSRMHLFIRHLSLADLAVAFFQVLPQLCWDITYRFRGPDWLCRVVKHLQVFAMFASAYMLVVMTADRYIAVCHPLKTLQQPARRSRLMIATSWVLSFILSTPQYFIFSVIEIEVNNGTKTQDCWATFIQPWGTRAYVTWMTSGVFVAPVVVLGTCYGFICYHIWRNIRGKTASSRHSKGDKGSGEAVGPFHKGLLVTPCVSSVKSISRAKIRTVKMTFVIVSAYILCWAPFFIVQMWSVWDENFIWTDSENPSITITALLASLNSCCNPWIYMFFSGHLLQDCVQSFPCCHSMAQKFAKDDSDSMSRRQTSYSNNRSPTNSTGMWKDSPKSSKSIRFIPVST
Test: biochemical
Settings: rat liver plasma membrane, [3H]-Arg-vasopressin, 37° C., 10 minutes, pH 8.0; read-out: IC50 in V1 receptor binding assay
Method: Experiment 1: V1 receptor binding assay Using rat liver plasma membrane preparations prepared according to Ichihara's method [cf: Akira Ichihara, J. Bio. […] The amount of [^3 H]-vasopressin binding with the membrane is measured by liquid scintillation counter and the rate of the inhibitory effect of the test compound is estimated according to the following equation. […]
pIC50: −log10 of the molar value. Where a name gives a salt, the structure may show the parent alone.
Measured pIC50, listed per entry for reference.
test readout: pIC50

molecule	measured target	recorded result
O=C(Nc1ccc(C(=O)N2CCCC(CCN3CCOCC3)c3cc(Cl)ccc32)cn1)c1ccccc1Cl (stereo not drawn)	V1 receptor (Rattus norvegicus)	7.54
Cc1ccccc1C(=O)Nc1ccc(C(=O)N2CCCC(CC(=O)N3CCN(C)CC3)c3cc(Cl)ccc32)cn1 (stereo not drawn)	V1 receptor (Rattus norvegicus)	7.52
Cc1ccccc1C(=O)Nc1ccc(C(=O)N2CCCC(OCCn3ccnc3)c3cc(Cl)ccc32)cn1 (stereo not drawn)	V1 receptor (Rattus norvegicus)	7.54
CN(C)CCOc1ccccc1C(=O)Nc1ccc(C(=O)N2CCCCc3cc(Cl)ccc32)cn1 [Compound of Ex. 96, dihydrochloride]	V1 receptor (Rattus norvegicus)	7.37
Cc1ccccc1C(=O)Nc1ccc(C(=O)N2CCCN(C)c3cc(Cl)ccc32)cn1	V1 receptor (Rattus norvegicus)	7.29
CNC1CCCN(C(=O)c2ccc(NC(=O)c3ccccc3C)nc2)c2ccc(Cl)cc21 (stereo not drawn)	V1 receptor (Rattus norvegicus)	7.39
Cc1ccccc1C(=O)Nc1ccc(C(=O)N2CCCC(O)c3cc(Cl)ccc32)nc1 (stereo not drawn)	V1 receptor (Rattus norvegicus)	7.11
Cc1ccccc1C(=O)Nc1ccc(C(=O)N2CCC(O)Cc3cc(Cl)ccc32)cn1 (stereo not drawn)	V1 receptor (Rattus norvegicus)	7.57
CN1CCN(C(=O)COc2ccccc2C(=O)Nc2ccc(C(=O)N3CCCCc4cc(Cl)ccc43)cn2)CC1	V1 receptor (Rattus norvegicus)	7.59
O=C(Nc1ccc(C(=O)N2CCCCc3cc(Cl)ccc32)cn1)c1ccccc1OCCO	V1 receptor (Rattus norvegicus)	7.15
Cc1ccccc1C(=O)Nc1ccc(C(=O)N2CCCCc3cc(Cl)ccc32)cn1	V1 receptor (Rattus norvegicus)	7.89
NC(=O)COC1CCCN(C(=O)c2ccc(NC(=O)c3ccccc3Cl)nc2)c2ccc(Cl)cc21 (stereo not drawn)	V1 receptor (Rattus norvegicus)	8.15
Cc1ccccc1C(=O)Nc1ccc(C(=O)N2CCCC(OCC(=O)N3CCN(C)CC3)c3cc(Cl)ccc32)cn1 (stereo not drawn)	V1 receptor (Rattus norvegicus)	7.70
CC(=O)NCCC1CCCN(C(=O)c2ccc(NC(=O)c3ccccc3C)nc2)c2ccc(Cl)cc21 (stereo not drawn)	V1 receptor (Rattus norvegicus)	8.18
CCN(CC)CCN(C)C(=O)COC1CCCN(C(=O)c2ccc(NC(=O)c3ccccc3Cl)nc2)c2ccc(Cl)cc21 (stereo not drawn)	V1 receptor (Rattus norvegicus)	8.08

----------
Biological target: V1 receptor (Rattus norvegicus)
Experiment: biochemical
Conditions: rat liver plasma membrane, [3H]-Arg-vasopressin, 37° C., 10 minutes, pH 8.0; read-out: IC50 in V1 receptor binding assay
pIC50: −log10 of the molar value.
Measured pIC50, listed per entry for reference.

compound	pIC50
Cc1ccccc1C(=O)Nc1ccc(C(=O)N2CCCC(O)(CO)c3cc(Cl)ccc32)cn1 (stereo not shown)	7.18
Cc1ccccc1C(=O)Nc1ccc(C(=O)N2CCCC(CC(=O)N(C)C)c3cc(Cl)ccc32)cn1 (stereo not shown)	7.66
CCNC(=O)CC1CCCN(C(=O)c2ccc(NC(=O)c3ccccc3Cl)nc2)c2ccc(Cl)cc21 (stereo not shown)	8.05
Cc1ccccc1C(=O)Nc1cnc(C(=O)N2CCCC(O)c3cc(Cl)ccc32)s1 (stereo not shown)	7.39
O=C(Nc1ccc(C(=O)N2CCCC(CCn3ccnc3)c3cc(Cl)ccc32)cn1)c1ccccc1Cl (stereo not shown)	7.51
O=C(Nc1ccc(C(=O)N2CCCC(CC(=O)N3CCCC3)c3cc(Cl)ccc32)cn1)c1ccccc1Cl (stereo not shown)	7.96
Cc1ccccc1C(=O)Nc1ccc(C(=O)N2CCN(C)Cc3cc(Cl)ccc32)cn1	6.82
